Target: GnRH receptor (Homo sapiens, UniProt P30968)
Construct: expressed in transfected cells
Sequence (P30968 whole entry, species assumed): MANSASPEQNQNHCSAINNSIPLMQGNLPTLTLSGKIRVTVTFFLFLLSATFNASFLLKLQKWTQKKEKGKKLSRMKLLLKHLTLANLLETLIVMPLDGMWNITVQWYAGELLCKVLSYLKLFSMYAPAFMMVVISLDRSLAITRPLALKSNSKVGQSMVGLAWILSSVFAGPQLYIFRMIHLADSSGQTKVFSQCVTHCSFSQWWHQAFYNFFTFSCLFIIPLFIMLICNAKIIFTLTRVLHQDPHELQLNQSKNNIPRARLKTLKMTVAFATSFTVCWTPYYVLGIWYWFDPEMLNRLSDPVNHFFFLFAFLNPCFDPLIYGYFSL
Test: GnRH receptor membrane binding assay
Details: GnRH receptor membrane binding assay, [125I]-labeled GnRH peptide; read-out: Ki
pKi: −log10 of the molar value.
Let's look at some compounds and their measured pKi.
Measured quantity: pKi

1. Cc1ccc(Nc2nc(-c3c(C)n(Cc4c(F)cccc4F)c(=O)n(C[C@H](N)c4ccccc4)c3=O)cs2)cc1 [12-32] ... > 7.00
2. COc1cccc(-c2c(C)n(Cc3c(F)cccc3F)c(=O)n([C@H](C)CNCc3cccc4ccccc34)c2=O)c1F [9-502] ... > 7.00
3. COc1cccc(-c2c(C)n(Cc3c(F)cccc3F)c(=O)n(C[C@H](C)NCc3ccccc3)c2=O)c1F [9-304] ... > 7.00
4. Cc1c(-c2ccc3c(c2)OCCO3)c(=O)n(CCN2CCN(c3ccccc3)CC2)c(=O)n1Cc1c(F)cccc1F [9-199] ... > 7.00

Taken from patent US7462625B2.
